Cited source for all entries: patent US20260098080A1

molecular target: human MASP-2 (in normal human serum) (human, UniProt O00187 16-686); test: cell-based or functional assay
Sequence (O00187 16-686 limits assumed): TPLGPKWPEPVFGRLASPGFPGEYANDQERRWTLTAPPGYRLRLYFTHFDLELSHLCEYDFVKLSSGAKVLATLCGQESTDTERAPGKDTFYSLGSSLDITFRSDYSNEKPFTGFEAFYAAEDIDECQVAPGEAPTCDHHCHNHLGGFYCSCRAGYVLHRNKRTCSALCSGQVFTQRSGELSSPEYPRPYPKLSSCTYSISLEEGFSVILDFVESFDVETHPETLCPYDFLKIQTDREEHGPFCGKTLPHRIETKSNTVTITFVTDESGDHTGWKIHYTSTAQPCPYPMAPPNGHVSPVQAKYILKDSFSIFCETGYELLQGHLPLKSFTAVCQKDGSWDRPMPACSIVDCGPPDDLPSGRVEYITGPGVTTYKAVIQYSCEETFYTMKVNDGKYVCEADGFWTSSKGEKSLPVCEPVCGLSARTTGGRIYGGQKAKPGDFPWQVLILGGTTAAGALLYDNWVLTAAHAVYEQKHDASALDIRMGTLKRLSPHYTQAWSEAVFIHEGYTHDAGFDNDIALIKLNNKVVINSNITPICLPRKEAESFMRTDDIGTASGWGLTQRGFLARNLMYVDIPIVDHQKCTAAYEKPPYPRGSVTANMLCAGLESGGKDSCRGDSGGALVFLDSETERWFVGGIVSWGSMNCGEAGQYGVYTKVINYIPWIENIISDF
Where no end group is shown, it is not given here.
PARAMETER_MEASURED: Relative potency, lectin pathway, human serum (fold vs EVO2)
Please give a number only; it is taken to be in fold vs EVO2.

{"BINDER": "EVO214 (designed binder, not fully specified; ends and bridges not checked, Modified TFPI-D2 Kunitz domain; made as m1) KPDFCFLENDPGPCRALKLRYFYNNQTKQCERFGYGGCLGNMNNFVTLEECKNICEDG", "RESULT_NUMBER": 32.4}

Given the binder EVO2 (designed binder, not fully specified; ends and bridges not checked, Modified Kunitz domain TFPI-D2 of human TFPI-1; recombinant from E. coli, freed from a His6-S100A4 fusion by TEV protease; also called TFMI-2b) KPDFCFLEEDPGPCRAVKRRYFYNNQTKQCERFKYGGCLGNMNNFETLEECKNICEDG , what is its reported Relative potency, lectin pathway, human serum? 1

Please report the recorded Relative potency, lectin pathway, human serum for EVO24 (designed binder, not fully specified; cysteine pairing not given here, Modified TFPI-D2 Kunitz domain; made as m1) KPDFCFLENDPGPCRALKRRYFYNNQTKQCERFYYGGCLGNMNNFETLEECKNICEDG . 18.1

Reported Relative potency, lectin pathway, human serum for EVO223 (designed binder, Modified TFPI-D2 Kunitz domain; made as m1) KPDFCFLENDPGPCRAAAVRYFYNNQTKQCERFYYGGCLGNMNNFVTLEECKNICEDG : what is it? 14
